- Tested on: MDA-MB-468 breast
- test-protocol: NCI tumour cell line growth inhibition, 48 h
Where a SMILES comes first, the peptide text is derived from it. Bridges are numbered along the chain shown (N, C = ends). [ ]: non-standard residue; d: D form. The star is where a group is joined. Phe(3,5-F2) = N[C@@H](Cc1cc(F)cc(F)c1)C(=O)O; Pro(4R-Me) = C[C@H]1CN[C@H](C(=O)O)C1; aThr = C[C@H](O)[C@H](N)C(=O)O; Pip = O=C(O)[C@@H]1CCCCN1; X7 = CCC/C=C/C=C/C(=O)*
endpoint-name: TGI (µM)
Answers are plain numbers, in µM.

CCC/C=C/C=C/C(=O)N[C@@H](Cc1cc(F)cc(F)c1)C(=O)N[C@@H]1C(=O)N2CCC[C@H]2C(=O)N2CCCC[C@H]2C(=O)N[C@@H](C)C(=O)N2C[C@H](C)C[C@H]2C(=O)O[C@H]1C (X7-[Phe(3,5-F2)][aThr]P[Pip]A[Pro(4R-Me)]; ester 2-C) | 1.03
O=C(/C=C/c1cccnc1)c1ccccc1 | 22

Batch lookup, TGI per entry.
1. COC(=O)Nc1nc2ccc(C(=O)C3CC3)cc2[nH]1
2. O=C(NCCNc1nccc(-c2c(-c3ccc(F)cc3)nc3sccn23)n1)Nc1cccc(C(F)(F)F)c1
3. O=C1NC(=N[C@@H]2C[C@H]2c2ccccc2)S/C1=C\c1ccc2ncccc2c1
4. C#CCN(C)CCCOc1ccc(NCc2ccc(C(=O)NO)cc2)cc1Cl
5. Cc1cc(C)c2c(=O)cc(-c3ccccc3)[nH]c2c1
6. CN1CCN(Cc2ccc(NC(=O)c3cncc(C#Cc4cnc5ccc(OCC6COC6)nn45)c3)cc2C(F)(F)F)CC1

1: 1.48; 2: 7.46; 3: 5.85; 4: 8.14; 5: 25.5; 6: 0.726

Batch lookup, TGI per entry.
1. COc1ncnn2ccc(-c3cnc4nc(C)n(Cc5nnc(C(C)F)o5)c4c3)c12 (stereo unspecified)
2. O=C(NC(=S)Nc1ccc(-c2nc3ccccc3[nH]2)cc1)c1ccc2ccccc2c1

1: 0.309; 2: 7.72
